Target: system xc- (IMR90) (Homo sapiens, UniProt Q9UPY5)
Construct: gene SLC7A11; native endogenous transporter in intact IMR-90 fibroblasts
Sequence (Q9UPY5 1-501): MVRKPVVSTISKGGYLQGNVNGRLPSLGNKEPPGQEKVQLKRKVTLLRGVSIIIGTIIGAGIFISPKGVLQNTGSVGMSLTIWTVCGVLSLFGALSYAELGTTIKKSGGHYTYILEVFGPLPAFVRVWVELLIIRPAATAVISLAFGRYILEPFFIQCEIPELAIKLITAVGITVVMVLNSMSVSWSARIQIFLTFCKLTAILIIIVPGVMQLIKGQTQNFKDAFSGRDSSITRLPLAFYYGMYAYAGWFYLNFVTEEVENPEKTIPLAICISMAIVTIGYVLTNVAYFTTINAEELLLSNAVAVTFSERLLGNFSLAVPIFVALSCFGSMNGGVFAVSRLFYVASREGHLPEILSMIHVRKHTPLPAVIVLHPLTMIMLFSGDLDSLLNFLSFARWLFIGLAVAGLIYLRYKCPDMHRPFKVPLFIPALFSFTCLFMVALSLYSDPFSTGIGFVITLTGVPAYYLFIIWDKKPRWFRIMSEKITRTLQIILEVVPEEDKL
Sequence (P08195 1-529 partner): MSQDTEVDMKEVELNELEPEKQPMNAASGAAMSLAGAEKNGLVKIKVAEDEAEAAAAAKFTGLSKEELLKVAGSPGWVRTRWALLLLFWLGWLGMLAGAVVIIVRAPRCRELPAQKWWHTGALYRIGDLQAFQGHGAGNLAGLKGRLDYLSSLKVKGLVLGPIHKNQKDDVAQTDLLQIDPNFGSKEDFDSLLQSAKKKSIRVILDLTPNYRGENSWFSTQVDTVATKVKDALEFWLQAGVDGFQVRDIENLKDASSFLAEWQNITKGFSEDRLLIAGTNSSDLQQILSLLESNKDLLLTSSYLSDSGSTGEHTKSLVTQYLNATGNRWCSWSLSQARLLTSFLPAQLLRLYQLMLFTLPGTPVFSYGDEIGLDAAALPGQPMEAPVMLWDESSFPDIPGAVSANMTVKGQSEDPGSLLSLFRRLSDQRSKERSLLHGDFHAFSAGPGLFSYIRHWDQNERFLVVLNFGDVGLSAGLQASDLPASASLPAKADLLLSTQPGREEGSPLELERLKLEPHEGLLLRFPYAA
Experiment: cell-based
Parameters: species or system IMR-90; [14C]-cystine uptake inhibition, 2 min, PBS with Na+, scintillation counting
Settings: PBS (+Na+), 2 min
property: pIC50
Please keep in mind that pIC50 is minus log10 of the molar concentration; only the number is needed.

Ask | Form field: pIC50 recorded for N[C@@H](CCC(=O)O)C(=O)O [glutamate] with system xc- (IMR90) (Homo sapiens, UniProt Q9UPY5) (enter value)
Reply | 3.70
